# measuredOn: FGF14:Nav1.6 C-tail complex (Homo sapiens, UniProt Q92915+Q9UQD0)
# Construct: polymerase chain reaction (PCR) amplification of the FGF14 open reading frame (nt 1–855); C-terminal fragment of Nav1.6 (amino acids 1763–1976) fused with CD4ΔC-tail (amino acids 1–395); expressed in transfected cells
# Sequence (Q92915 1-252 isoform Q92915-2): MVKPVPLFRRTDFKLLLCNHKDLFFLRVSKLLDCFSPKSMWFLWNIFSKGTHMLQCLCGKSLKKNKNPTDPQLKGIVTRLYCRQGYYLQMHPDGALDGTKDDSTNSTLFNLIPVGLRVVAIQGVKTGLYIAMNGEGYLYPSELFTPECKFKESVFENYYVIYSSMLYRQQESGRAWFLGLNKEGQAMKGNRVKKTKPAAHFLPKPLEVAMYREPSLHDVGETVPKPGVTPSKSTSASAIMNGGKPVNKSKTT
# Sequence (Q9UQD0 1763-1976 limits assumed): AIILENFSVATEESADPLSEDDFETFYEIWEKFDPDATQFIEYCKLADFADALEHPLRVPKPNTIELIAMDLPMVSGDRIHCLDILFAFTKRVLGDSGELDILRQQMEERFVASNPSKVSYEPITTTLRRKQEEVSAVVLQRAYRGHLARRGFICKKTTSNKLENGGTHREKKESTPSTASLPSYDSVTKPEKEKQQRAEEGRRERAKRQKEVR
# experimentalProtocol: Split-luciferase complementation assay (LCA) in Clone V double stable HEK293 cells
# Assay type: cell-based
Where a name gives a salt, the structure may show the parent alone.
assayReadout: Split Luciferase Assay Z-score Set 2

• CC1=C2C[C@H]3[C@@H](CC=C4C[C@@H](O)CC[C@@]43C)[C@@H]2CC[C@]12O[C@@H]1C[C@H](C)CN[C@H]1[C@H]2C [CYCLOPAMINE] = 0.33
• O=P1(N(CCCl)CCCl)NCCCO1 (stereo not shown) [Cyclophosphamide] = 1.43
• C[C@]12CC[C@@H]3c4ccc(OC(=O)N(CCCl)CCCl)cc4CC[C@H]3[C@@H]1CC[C@@H]2OP(=O)(O)O [Estramustine phosphate sodium] = -5.00
• COc1cc2ncnc(Nc3cccc(Br)c3)c2cc1OC [PD 153035] = 1.77
• C[S+]([O-])c1ccc(-c2nc(-c3ccncc3)c(-c3ccc(F)cc3)[nH]2)cc1 (stereo not shown) [SB 203580, reference compound] = 5.41
• CC[C@H](CO)Nc1nc(NCc2ccccc2)c2ncn(C(C)C)c2n1 [Roscovitine] = -4.33
• CC/C(=C(\c1ccccc1)c1ccc(OCCN(C)C)cc1)c1ccccc1 [Tamoxifen citrate] = -8.05
• CCCS(=O)(=O)Nc1ccc(F)c(C(=O)c2c[nH]c3ncc(Cl)cc23)c1F [PLX4720, reference compound] = -4.67
• Oc1ncc(N(CCCl)CCCl)c(O)n1 [Uracil mustard] = -2.21
• C1CN1c1nc(N2CC2)nc(N2CC2)n1 [Triethylenemelamine] = 1.34

###

# measuredOn: full-length P. pyralis luciferase (Photinus pyralis, UniProt P08659, K549A/L550V/N119G/N50D/S548I)
# Sequence (P08659 whole entry N50D/N119G/S548I/K549A/L550V, looked up): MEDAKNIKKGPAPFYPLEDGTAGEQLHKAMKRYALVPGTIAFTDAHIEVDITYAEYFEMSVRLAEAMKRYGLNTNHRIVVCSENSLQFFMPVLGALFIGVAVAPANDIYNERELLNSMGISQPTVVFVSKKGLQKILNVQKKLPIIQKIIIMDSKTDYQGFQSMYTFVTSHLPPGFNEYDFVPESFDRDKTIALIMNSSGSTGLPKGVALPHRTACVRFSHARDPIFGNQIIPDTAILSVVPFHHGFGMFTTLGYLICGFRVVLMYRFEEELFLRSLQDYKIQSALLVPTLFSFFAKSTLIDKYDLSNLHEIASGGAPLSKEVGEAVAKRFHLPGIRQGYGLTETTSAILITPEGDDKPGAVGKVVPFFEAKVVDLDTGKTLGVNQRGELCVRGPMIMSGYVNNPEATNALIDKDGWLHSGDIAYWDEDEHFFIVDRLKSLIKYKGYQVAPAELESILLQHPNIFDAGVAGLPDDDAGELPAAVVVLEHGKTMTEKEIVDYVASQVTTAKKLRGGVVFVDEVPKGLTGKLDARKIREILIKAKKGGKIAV
# Format: cell-based
# settings: CC_NCI screening; full-length luciferase counter-screen; normalized to on-plate 0.3% DMSO controls
Structures can show the parent of a compound that is named as a salt.
Bucketed by reported Luciferase Assay Z-score, buckets being interval 1 = under -2, interval 2 = from -2 up to -0.06, interval 3 = -0.06 and over

* Cn1c(=O)n(-c2ccc(C(C)(C)C#N)cc2)c2c3cc(-c4cnc5ccccc5c4)ccc3ncc21 [BEZ 235] | interval 2
* N#Cc1ccc(C(c2ccc(C#N)cc2)n2cncn2)cc1 [Letrozole] | interval 3
* O=c1cc(-c2cccc3c2Sc2ccccc2S3)oc(N2CCOCC2)c1 [KU-55933] | interval 1
* O=c1[nH]c(=O)n([C@H]2C[C@H](O)[C@@H](CO)O2)cc1F [Floxuridine, reference compound] | interval 3
* COc1cccc2c1C(=O)c1c(O)c3c(c(O)c1C2=O)C[C@@](O)(C(=O)CO)C[C@@H]3O[C@H]1C[C@H](N)[C@@H](O)[C@H](C)O1 [Epirubicin hydrochloride] | interval 1
* Cc1cccc(Nc2nc(-c3ccncc3)cs2)c1 [STF-62247] | interval 1
* CCC1=C[C@@H]2CN(C1)Cc1c([nH]c3ccccc13)[C@@](C(=O)OC)(c1cc3c(cc1OC)N(C)[C@H]1[C@@](O)(C(=O)OC)[C@H](OC(C)=O)[C@]4(CC)C=CCN5CC[C@]31[C@@H]54)C2 [Vinorelbine tartrate] | interval 3
* CC(=O)Nc1cccc(-n2c(=O)n(C3CC3)c(=O)c3c(Nc4ccc(I)cc4F)n(C)c(=O)c(C)c32)c1 [Trametinib] | interval 2
* CNC(=O)c1ccccc1Sc1ccc2c(/C=C/c3ccccn3)n[nH]c2c1 [AXITINIB] | interval 1
* COc1cc(Nc2c(C#N)cnc3cc(OCCCN4CCN(C)CC4)c(OC)cc23)c(Cl)cc1Cl [Bosutinib] | interval 1
* CCCCCCCCCCCCCCCCCCOP(=O)([O-])OC1CC[N+](C)(C)CC1 [PERIFOSINE] | interval 3
* OCC1OC(O)CC(O)C1O (stereo not drawn) [Compound 2DG] | interval 2
* C=C1C[C@@H]2[C@H](CC[C@]3(C)C(=O)CC[C@@H]23)[C@@]2(C)C=CC(=O)C=C12 [Exemestane] | interval 2

Every entry's value here was drawn from paper PMC6858373.
